- studyTarget: Sodium-dependent serotonin transporter (Homo sapiens, UniProt P31645)
- Sequence (P31645 whole entry): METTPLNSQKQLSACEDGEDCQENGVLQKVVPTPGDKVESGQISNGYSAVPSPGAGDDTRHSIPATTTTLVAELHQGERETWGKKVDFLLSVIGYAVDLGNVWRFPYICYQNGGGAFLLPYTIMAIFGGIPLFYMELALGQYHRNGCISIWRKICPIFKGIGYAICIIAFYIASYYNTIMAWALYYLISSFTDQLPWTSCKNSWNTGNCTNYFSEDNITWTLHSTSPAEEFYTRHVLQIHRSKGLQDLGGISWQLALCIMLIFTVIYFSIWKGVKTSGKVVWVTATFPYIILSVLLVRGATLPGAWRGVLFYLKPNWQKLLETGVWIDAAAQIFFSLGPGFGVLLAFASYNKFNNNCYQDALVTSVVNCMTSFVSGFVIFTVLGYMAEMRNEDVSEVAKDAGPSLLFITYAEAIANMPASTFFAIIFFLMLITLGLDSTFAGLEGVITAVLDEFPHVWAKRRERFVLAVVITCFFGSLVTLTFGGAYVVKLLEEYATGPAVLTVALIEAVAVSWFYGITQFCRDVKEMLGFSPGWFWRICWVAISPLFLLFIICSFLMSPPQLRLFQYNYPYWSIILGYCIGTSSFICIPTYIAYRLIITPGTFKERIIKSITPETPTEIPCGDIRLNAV
- protocolDetails: Inhibition of [3H]-5-HT reuptake in human SERT transfected into HEK293 cells by liquid scintillation counting method
propertyMeasured: IC50 (nM)

Use the examples below as a reference point.
In [3]: df
Out[3]:
                            smilesstructure                               studytarget  measurementunit  result
0  Clc1ccc(N2CCN(CCN3CCC(Cc4ccccc4)CC3)CC2)c(Cl)c1  Sodium-dependent serotonin transporter (Homo sapiens, UniProt P31645)               nM    4320
1  FC(F)(F)c1ccc(N2CCN(CCCN3CCC(Cc4ccccc4)CC3)CC2)cc1  Sodium-dependent serotonin transporter (Homo sapiens, UniProt P31645)               nM    2610
2  COc1ccccc1N1CCN(CCCN2CCC(Cc3ccccc3)CC2)CC1  Sodium-dependent serotonin transporter (Homo sapiens, UniProt P31645)               nM    1760
3  Clc1ccc(N2CCN(CCCN3CCC(Cc4ccccc4)CC3)CC2)cc1  Sodium-dependent serotonin transporter (Homo sapiens, UniProt P31645)               nM    2030
4  Brc1ccc(N2CCN(CCN3CCC(Cc4ccccc4)CC3)CC2)cc1  Sodium-dependent serotonin transporter (Homo sapiens, UniProt P31645)               nM    4920

1: Clc1cccc(N2CCN(CCCN3CCC(Cc4ccccc4)CC3)CC2)c1Cl
2: Clc1ccc(N2CCN(CCCN3CCC(Cc4ccccc4)CC3)CC2)c(Cl)c1
Query: Please indicate which item has the smaller measured IC50: 1 versus 2 Reply briefly: the label of your chosen item.
Result: 2
(2: 1460 nM, 1: 2510 nM)

---

- studyTarget: Sodium-dependent noradrenaline transporter (Homo sapiens, UniProt P23975)
- Sequence (P23975 whole entry): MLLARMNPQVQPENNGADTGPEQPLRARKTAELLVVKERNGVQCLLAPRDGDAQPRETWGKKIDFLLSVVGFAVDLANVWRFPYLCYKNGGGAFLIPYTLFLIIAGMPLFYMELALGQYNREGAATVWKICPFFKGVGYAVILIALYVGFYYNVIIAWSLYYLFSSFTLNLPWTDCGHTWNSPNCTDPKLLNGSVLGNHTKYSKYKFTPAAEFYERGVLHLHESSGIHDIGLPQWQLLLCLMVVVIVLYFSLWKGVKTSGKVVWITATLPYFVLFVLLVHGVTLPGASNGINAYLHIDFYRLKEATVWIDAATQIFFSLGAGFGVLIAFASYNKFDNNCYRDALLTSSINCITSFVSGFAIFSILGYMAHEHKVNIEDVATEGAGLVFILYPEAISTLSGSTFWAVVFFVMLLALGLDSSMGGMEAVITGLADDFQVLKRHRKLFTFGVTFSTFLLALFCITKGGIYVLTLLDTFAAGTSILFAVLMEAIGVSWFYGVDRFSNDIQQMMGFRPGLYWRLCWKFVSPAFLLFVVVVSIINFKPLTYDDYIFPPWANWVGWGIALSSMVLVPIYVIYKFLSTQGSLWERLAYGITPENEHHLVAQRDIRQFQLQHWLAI
- protocolDetails: Inhibition of [3H]-NE reuptake in human NET transfected into HEK293 cells at 10 uM by liquid scintillation counting method relative to venlafaxine HCl
- Format: cell-based
propertyMeasured: fold change (FC)

In [3]: df
Out[3]:
                             smilesstructure                               studytarget  propertymeasured  result
 0  c1ccc(CC2CCN(CCN3CCN(c4ccccc4)CC3)CC2)cc1  Sodium-dependent noradrenaline transporter (Homo sapiens, UniProt P23975)  fold change (FC)       1
 1  Cc1cccc(C)c1N1CCN(CCN2CCC(Cc3ccccc3)CC2)CC1  Sodium-dependent noradrenaline transporter (Homo sapiens, UniProt P23975)  fold change (FC)    1.26
 2  COc1ccccc1N1CCN(CCCN2CCC(Cc3ccccc3)CC2)CC1  Sodium-dependent noradrenaline transporter (Homo sapiens, UniProt P23975)  fold change (FC)    1.36
 3  c1ccc(CC2CCN(CCCN3CCN(c4ccccc4)CC3)CC2)cc1  Sodium-dependent noradrenaline transporter (Homo sapiens, UniProt P23975)  fold change (FC)    1.51
 4  Clc1ccc(N2CCN(CCCN3CCC(Cc4ccccc4)CC3)CC2)cc1  Sodium-dependent noradrenaline transporter (Homo sapiens, UniProt P23975)  fold change (FC)    1.46
 5  Fc1ccc(N2CCN(CCCN3CCC(Cc4ccccc4)CC3)CC2)cc1  Sodium-dependent noradrenaline transporter (Homo sapiens, UniProt P23975)  fold change (FC)     1.4
 6  Brc1ccc(N2CCN(CCCN3CCC(Cc4ccccc4)CC3)CC2)cc1  Sodium-dependent noradrenaline transporter (Homo sapiens, UniProt P23975)  fold change (FC)     1.6
 7  Clc1cccc(N2CCN(CCN3CCC(Cc4ccccc4)CC3)CC2)c1  Sodium-dependent noradrenaline transporter (Homo sapiens, UniProt P23975)  fold change (FC)    1.29
 8  Clc1ccc(N2CCN(CCN3CCC(Cc4ccccc4)CC3)CC2)c(Cl)c1  Sodium-dependent noradrenaline transporter (Homo sapiens, UniProt P23975)  fold change (FC)    1.29
 9  Clc1cccc(N2CCN(CCCN3CCC(Cc4ccccc4)CC3)CC2)c1  Sodium-dependent noradrenaline transporter (Homo sapiens, UniProt P23975)  fold change (FC)    1.41
10  c1ccc(CC2CCN(CCCN3CCN(c4ncccn4)CC3)CC2)cc1  Sodium-dependent noradrenaline transporter (Homo sapiens, UniProt P23975)  fold change (FC)    1.01
11  Clc1ccc(N2CCN(CCCN3CCC(Cc4ccccc4)CC3)CC2)c(Cl)c1  Sodium-dependent noradrenaline transporter (Homo sapiens, UniProt P23975)  fold change (FC)    1.45
12  Clc1cccc(N2CCN(CCCN3CCC(Cc4ccccc4)CC3)CC2)c1Cl  Sodium-dependent noradrenaline transporter (Homo sapiens, UniProt P23975)  fold change (FC)    1.63
13  Brc1ccc(N2CCN(CCN3CCC(Cc4ccccc4)CC3)CC2)cc1  Sodium-dependent noradrenaline transporter (Homo sapiens, UniProt P23975)  fold change (FC)    1.31
14  FC(F)(F)c1ccc(N2CCN(CCN3CCC(Cc4ccccc4)CC3)CC2)cc1  Sodium-dependent noradrenaline transporter (Homo sapiens, UniProt P23975)  fold change (FC)    1.26
15  Clc1ccc(N2CCN(CCN3CCC(Cc4ccccc4)CC3)CC2)cc1  Sodium-dependent noradrenaline transporter (Homo sapiens, UniProt P23975)  fold change (FC)    1.18
16  Cc1cccc(C)c1N1CCN(CCCN2CCC(Cc3ccccc3)CC2)CC1  Sodium-dependent noradrenaline transporter (Homo sapiens, UniProt P23975)  fold change (FC)    1.37
17  Fc1ccc(N2CCN(CCN3CCC(Cc4ccccc4)CC3)CC2)cc1  Sodium-dependent noradrenaline transporter (Homo sapiens, UniProt P23975)  fold change (FC)    1.16
18  FC(F)(F)c1ccc(N2CCN(CCCN3CCC(Cc4ccccc4)CC3)CC2)cc1  Sodium-dependent noradrenaline transporter (Homo sapiens, UniProt P23975)  fold change (FC)    1.34
19  c1ccc(CC2CCN(CCCN3CCN(c4ccccn4)CC3)CC2)cc1  Sodium-dependent noradrenaline transporter (Homo sapiens, UniProt P23975)  fold change (FC)    1.23
